test system: U251 CNS; assay: NCI tumour cell line growth inhibition, 48 h
experimentalReadout: TGI (µM)
# unit: µM | format: bare number

Consider the reported TGI for these molecules:
COc1ccc2c(Cc3c4ccccc4cc4ccccc34)cncc2c1O = 7.71
C[C@]12CC[C@H]3[C@@H](CCC4=CC(=O)CC[C@@]43C)[C@@H]1CC[C@@H]2C(=O)COS(=O)(=O)c1ccc(Br)cc1 = 26.2

Note to self: TGI recorded for O=C(N=Nc1c(O)[nH]c2ccccc12)c1oc2ccccc2c1CN1CCN(c2ccccc2)CC1 was 8.67

Note to self: TGI recorded for O=C(COc1ccc(OCC(=O)NNC2=NC(c3cc(F)c(Cl)cc3Cl)CS2)c(Cl)c1)NNC1=NC(c2cc(F)c(Cl)cc2Cl)CS1 (stereo not drawn) was 28.5

Sourced from PubChem BioAssay (NCI)
